System: OVCAR-8
Protocol Summary: NCI tumour cell line growth inhibition, 48 h
Active and inactive are the calls of the source. Cut-off read from the data, not from the text of the source: active = GI50 up to about 1.1 µM and inactive = higher.
Can you answer with just one of these options? active, inactive

INPUT: Assay outcome for CCCCC1Cc2ccccc2-c2nc3ccccc3n21 (stereo unspecified) : what was it?
OUTPUT: inactive

INPUT: Assay outcome for CC1CC(NC2CCCCC2)=Nc2ccccc2N1Cc1ccccc1 (stereo unspecified) : what was it?
OUTPUT: inactive

INPUT: Assay outcome for O=C(c1cccc(F)c1F)N1CCc2c([nH]c3ccccc23)C1c1ccc2c(c1)OCO2 (stereo unspecified) : what was it?
OUTPUT: inactive

INPUT: Assay outcome for `O=C(O)c1cc(Cl)cc(NC(=O)C(Cl)Cl)c1Cl` : what was it?
OUTPUT: inactive

INPUT: Assay outcome for `Cc1csc2c1C(=O)c1ccsc1C2=O` : what was it?
OUTPUT: inactive

INPUT: Assay outcome for COc1cc(-c2[nH]ccc2Cl)oc1C1=C2N=C3C=C2C(C(C)C)C1CCCCCCCC3 (stereo unspecified) : what was it?
OUTPUT: active

INPUT: Assay outcome for `CN1CCN(C(=S)N2CCN(C)CC2)CC1` : what was it?
OUTPUT: inactive

INPUT: Assay outcome for `CC[C@@H]1C[C@@H]2CN3CCc4c([nH]c5ccc(OC)cc45)C(COC(=O)c4ccc(OC)c(OC)c4)(C2)C13` : what was it?
OUTPUT: inactive

INPUT: Assay outcome for O=CC1C[C@@H](N2C(=O)O[C@@H](c3ccccc3)[C@H]2c2ccccc2)[C@@H]1COCc1ccccc1 (stereo partly specified) : what was it?
OUTPUT: inactive

INPUT: Assay outcome for COC(=O)C1=C(C=O)C2C=CC1C2 (stereo unspecified) : what was it?
OUTPUT: inactive

INPUT: Assay outcome for `CCCC(=O)n1[nH]c(=O)n(C(C)(C)C)c1=O` : what was it?
OUTPUT: inactive
